System: velvetleaf
measurement notes: Test B pre/postemergence velvetleaf
Assay type: in vivo, Abutilon theophrasti
condition notes: Preemergence, Rate 125 g/ha; scale 0 to 10, 0 is no effect, 10 is complete control

{"columns": ["structure string", "target of assay", "Velvetleaf plant response rating"],
 "data": [
  ["CCC(=O)Cn1c(=O)on(C(=O)N(c2ccc(F)cc2F)C(C)C)c1=O", "velvetleaf", 3],
  ["COCCOCn1c(=O)on(C(=O)N(c2ccc(Cl)cc2)C(C)C)c1=O", "velvetleaf", 0],
  ["CC(C)N(C(=O)n1oc(=O)n(CCCNC(=O)CCl)c1=O)c1ccccc1", "velvetleaf", 0],
  ["CCC=CCn1c(=O)on(C(=O)N(c2ccc(F)cc2F)C(C)C)c1=O", "velvetleaf", 2],
  ["CC(C)N(C(=O)n1oc(=O)n(CC2CC2)c1=O)c1ccc(F)cc1F", "velvetleaf", 6]
]}

---

Tested on: rice
measurement notes: Test B flood test rice
Assay type: in vivo, Oryza sativa
condition notes: flood test, listed under Postemergence, Rate 250 g/ha; scale 0 to 10, 0 no effect, 10 complete control
measured property: Rice plant response rating

{"columns": ["structure string", "numeric readout"],
 "data": [
  ["Cc1nn(C)c(C)c1-n1c(=O)on(C(=O)N(c2ccc(F)cc2F)C(C)C)c1=O", 3],
  ["COc1cccc(C)c1-n1c(=O)on(C(=O)N(c2ccc(F)cc2)C(C)C)c1=O", 0],
  ["CC(C)N(C(=O)n1oc(=O)n(-c2ccc(F)cc2F)c1=O)c1ccc(F)cc1F", 0],
  ["Cc1ccccc1Cn1c(=O)on(C(=O)N(C)c2ccccc2)c1=O", 0],
  ["COc1ccc(-n2c(=O)on(C(=O)N(c3ccc(F)cc3)C(C)C)c2=O)c(OC)c1", 2],
  ["CCN(CC)C(=O)n1oc(=O)n(-c2ccc(F)cc2)c1=O", 0],
  ["COc1ccc(-n2c(=O)on(C(=O)N(c3ccc(F)cc3)C(C)C)c2=O)cc1", 0]
]}

---

Tested on: crabgrass
measurement notes: Test B pre/postemergence crabgrass
Type: in vivo, Digitaria sanguinalis
condition notes: Rate 500 g/ha, Postemergence; scale 0 to 10, 0 no effect, 10 complete control

{"columns": ["molecule", "Crabgrass plant response rating"],
 "data": [
  ["Cc1nn(C)c(C)c1-n1c(=O)on(C(=O)N(c2ccc(F)cc2F)C(C)C)c1=O", 9],
  ["Cc1nc(C)c(Cn2c(=O)on(C(=O)N(c3ccc(F)cc3F)C(C)C)c2=O)s1", 6],
  ["CC(C)N(C(=O)n1oc(=O)n(COCc2ccccc2)c1=O)c1ccc(F)cc1", 0],
  ["Cc1ccccc1Cn1c(=O)on(C(=O)N(C)c2ccccc2)c1=O", 0],
  ["CCOC(=O)C(C)N(C(=O)n1oc(=O)n(-c2ccccc2C)c1=O)c1ccc(F)cc1 (stereo not drawn)", 0],
  ["[2H]C([2H])([2H])n1c(=O)on(C(=O)N(c2ccc(F)cc2)C(C)C)c1=O", 8]
]}

---

Test system: velvetleaf
measurement notes: Test B pre/postemergence velvetleaf
Assay type: in vivo, Abutilon theophrasti
condition notes: Postemergence, Rate 125 g/ha; scale 0 to 10, 0 is no effect, 10 is complete control
measured property: Plant response rating, Velvetleaf

{"columns": ["molecule", "numeric readout"],
 "data": [
  ["CC(C)N(C(=O)n1oc(=O)n(C)c1=O)c1ccc(F)cc1F", 0],
  ["CC1CC1n1c(=O)on(C(=O)N(c2ccc(F)cc2F)C(C)C)c1=O (centres unmarked)", 0],
  ["CC(C)N(C(=O)n1oc(=O)n(C2CC3CCC2C3)c1=O)c1ccc(F)cc1 (centres unmarked)", 0],
  ["CC(C)N(C(=O)n1oc(=O)n(CC2CCCO2)c1=O)c1ccc(F)cc1 (centres unmarked)", 0],
  ["CC(C)N(C(=O)n1oc(=O)n(C2(C)CC2)c1=O)c1ccc(Cl)cc1", 0]
]}
